Experiment: Pharmacokinetics after single intravenous administration in male CD-1 mice
Assay type: in vivo, mouse
Settings: mouse, plasma, 5 mg/kg IV, concentrations extrapolated from a 12.9 mg/kg IV dose, read-out: CLp (converted)

molecule | clearance (mL/min/kg)
CC1=C(CO)C2=C(C)C3(CC3)[C@@](C)(O)C(=O)C2=C1 [Irofulven, 6-hydroxymethylacylfulvene, reference compound] | 120

----------
Experiment: Pharmacokinetics after single intravenous administration in male CD-1 mice
Type: in vivo, mouse
Conditions: mouse, plasma, 5 mg/kg single IV, read-out: AUC (0-t)

molecule | endpoint-unit | AUC(0-t)
CC1=C(CN(O)C(N)=O)C2=C(C)C3(CC3)[C@@](C)(O)C(=O)C2=C1 [Compound 6, N-hydroxy-N-(methylacylfulvene)urea] | ng·h/mL | 2200

----------
Experiment: Pharmacokinetics after single intravenous administration in male CD-1 mice
Assay type: in vivo, mouse
Conditions: mouse, plasma, 5 mg/kg IV, concentrations extrapolated from a 12.9 mg/kg IV dose, read-out: Vdss
property: Vd (L/kg)

molecule | property | assay-result
CC1=C(CO)C2=C(C)C3(CC3)[C@@](C)(O)C(=O)C2=C1 [Irofulven, 6-hydroxymethylacylfulvene, reference compound] | Vd | 0.948

----------
Experiment: Pharmacokinetics after single intravenous administration in male CD-1 mice
Assay type: in vivo, mouse
Details: mouse, plasma, 5 mg/kg IV, concentrations extrapolated from a 12.9 mg/kg IV dose, read-out: Cmax

compound | Cmax [ng/mL]
CC1=C(CO)C2=C(C)C3(CC3)[C@@](C)(O)C(=O)C2=C1 [Irofulven, 6-hydroxymethylacylfulvene, reference compound] | 5650

----------
Assay: Pharmacokinetics after single intravenous administration in male CD-1 mice
Type: in vivo, mouse
Settings: mouse, plasma, 5 mg/kg single IV, read-out: Cmax

compound | Cmax, ng/mL
CC1=C(CN(O)C(N)=O)C2=C(C)C3(CC3)[C@@](C)(O)C(=O)C2=C1 [Compound 6, N-hydroxy-N-(methylacylfulvene)urea] | 9730

----------
Test: Pharmacokinetics after single intravenous administration in male CD-1 mice
Format: in vivo, mouse
Conditions: mouse, plasma, 5 mg/kg IV, concentrations extrapolated from a 12.9 mg/kg IV dose, read-out: AUC (0-t)

compound | endpoint-unit | AUC(0-t)
CC1=C(CO)C2=C(C)C3(CC3)[C@@](C)(O)C(=O)C2=C1 [Irofulven, 6-hydroxymethylacylfulvene, reference compound] | ng·h/mL | 691

----------
Test: Pharmacokinetics after single intravenous administration in male CD-1 mice
Format: in vivo, mouse
Settings: mouse, plasma, 5 mg/kg IV, concentrations extrapolated from a 12.9 mg/kg IV dose
Experimental: The pharmacokinetics (PK) of Compound 6 was investigated in the CD-1 male mouse. A single intravenous administration of 5 mg/kg was followed by sequential blood collections and analysis of plasma by LC/MS/MS.

compound | endpoint-unit | half-life
CC1=C(CO)C2=C(C)C3(CC3)[C@@](C)(O)C(=O)C2=C1 [Irofulven, 6-hydroxymethylacylfulvene, reference compound] | min | 5.93

----------
Test: Pharmacokinetics after single intravenous administration in male CD-1 mice
Type: in vivo, mouse
Conditions: mouse, plasma, 5 mg/kg IV, concentrations extrapolated from a 12.9 mg/kg IV dose
property: AUC(0-inf) (ng·h/mL)

compound | assay-result
CC1=C(CO)C2=C(C)C3(CC3)[C@@](C)(O)C(=O)C2=C1 [Irofulven, 6-hydroxymethylacylfulvene, reference compound] | 695
